I'd be grateful if you could share measured viability at 24 h, 10 µM for these entries.
- test.method.notes: Cell viability assay (MTT), cytotoxic activity
- Format: cell-based, human
- run.parameters: human, HepG2 hepatocarcinoma cells; 10 µM, 24 h, MTT, percent of control
Response body: numeric value in %, unit text excluded.

# lookup: viability at 24 h, 10 µM of COC1=CC(=O)c2c(O)cc(O)cc2[C@@]1(C)O [Compound 1, sajaroketide A]
108

# lookup: viability at 24 h, 10 µM of Cc1cc(O)cc2oc(C[C@H](C)O)cc(=O)c12
91.7

# lookup: viability at 24 h, 10 µM of Cc1cc(=O)c2c(C)cc(O)cc2o1
99.2

# lookup: viability at 24 h, 10 µM of COC1=CC(=O)C[C@@H](C)[C@]12Oc1c(Cl)c(O)cc(OC)c1C2=O
91.5

# lookup: viability at 24 h, 10 µM of COC1=CC(=O)c2c(O)cc(OC)cc2[C@@]1(C)O [Compound 2, sajaroketide B]
87.3

# lookup: viability at 24 h, 10 µM of Cc1cc(O)cc2oc3cc(O)cc(O)c3c(=O)c12
88

# lookup: viability at 24 h, 10 µM of COC1=CC(=O)C[C@@H](C)[C@]12Oc1c(Cl)c(OC)cc(OC)c1C2=O [Compound 8, griseofulvin, reference compound]
81

# lookup: viability at 24 h, 10 µM of Cc1cc(O)c(O)c2oc3cc(O)cc(O)c3c(=O)c12 [Compound 7, 1,3,5,6-tetrahydroxy-8-methylxanthone]
77.1

###

- Test system: Escherichia coli VKPM (B-7935)
- test.method.notes: Antimicrobial activity, inhibition of microbial growth (OD620)
- Type: cell-based
- run.parameters: Escherichia coli, compounds tested at 100 µM; read-out: Inhibition of Microbial Growth, E. coli
readout.kind: inhibition at 100 µM (%)
Response body: numeric value in %, unit text excluded.

# lookup: inhibition at 100 µM of Cc1cc(O)cc2oc3cc(O)cc(O)c3c(=O)c12 [Compound 5, norlichexanthone]
27.9

# lookup: inhibition at 100 µM of COC1=CC(=O)C[C@@H](C)[C@]12Oc1c(Cl)c(OC)cc(OC)c1C2=O [Compound 8, griseofulvin, reference compound]
16.8

###

I'd be grateful if you could share measured IC50 at 24 h for these entries.
- test.method.notes: Cell viability assay (MTT), cytotoxic activity
- Format: cell-based, rat
- run.parameters: rat, H9c2 cells (normal rat cardiomyocytes), 24 h, MTT; read-out: H9c2 IC50 (cytotoxic effect)

# lookup: IC50 at 24 h of Cc1cc(=O)c2c(C)cc(O)cc2o1 [Compound 4, altechromone A]
> 100 µM

# lookup: IC50 at 24 h of COC1=CC(=O)c2c(O)cc(O)cc2[C@@]1(C)O [Compound 1, sajaroketide A]
> 100 µM

# lookup: IC50 at 24 h of COC1=CC(=O)C[C@@H](C)[C@]12Oc1c(Cl)c(OC)cc(OC)c1C2=O [Compound 8, griseofulvin, reference compound]
> 100 µM

# lookup: IC50 at 24 h of COC1=CC(=O)C[C@@H](C)[C@]12Oc1c(Cl)c(O)cc(OC)c1C2=O [Compound 9, 6-O-desmethylgriseofulvin]
> 100 µM

# lookup: IC50 at 24 h of Cc1cc(O)cc2oc3cc(O)cc(O)c3c(=O)c12 [Compound 5, norlichexanthone]
~100 µM

# lookup: IC50 at 24 h of Cc1cc(O)c(O)c2oc3cc(O)cc(O)c3c(=O)c12 [Compound 7, 1,3,5,6-tetrahydroxy-8-methylxanthone]
~100 µM

# lookup: IC50 at 24 h of Cc1cc(O)cc2oc(C[C@H](C)O)cc(=O)c12 [Compound 3]
> 100 µM

# lookup: IC50 at 24 h of COC1=CC(=O)c2c(O)cc(OC)cc2[C@@]1(C)O [Compound 2, sajaroketide B]
> 100 µM

###

- test.method.notes: Cell viability assay (MTT), cytotoxic activity
- Assay type: cell-based, rat
- run.parameters: rat, H9c2 cardiomyocyte cells; 100 µM, 24 h, MTT, percent of control
I'd be grateful if you could share measured viability at 24 h, 100 µM for these entries.
Response body: numeric value in %, unit text excluded.

# lookup: viability at 24 h, 100 µM of COC1=CC(=O)C[C@@H](C)[C@]12Oc1c(Cl)c(OC)cc(OC)c1C2=O [Compound 8, griseofulvin, reference compound]
71.6

# lookup: viability at 24 h, 100 µM of Cc1cc(O)cc2oc(C[C@H](C)O)cc(=O)c12 [Compound 3]
74.3

# lookup: viability at 24 h, 100 µM of COC1=CC(=O)c2c(O)cc(O)cc2[C@@]1(C)O [Compound 1, sajaroketide A]
65.4

# lookup: viability at 24 h, 100 µM of Cc1cc(O)cc2oc3cc(O)cc(O)c3c(=O)c12 [Compound 5, norlichexanthone]
49

###

- test.method.notes: Cell viability assay (MTT), cytotoxic activity
- Type: cell-based, rat
- run.parameters: rat; 10 µM, 24 h, MTT, percent of control; read-out: H9c2 Cell Viability
readout.kind: viability at 24 h, 10 µM (%)
Response body: numeric value in %, unit text excluded.

# lookup: viability at 24 h, 10 µM of COc1cc(O)c2c(=O)c3c(C)cc(O)cc3oc2c1 [Compound 6, griseoxanthone C]
86

# lookup: viability at 24 h, 10 µM of CC1=CC(=O)OCC1 [Compound 11, 5,6-dihydro-4-methyl-2H-pyran-2-one]
95.9

###

- System: Escherichia coli VKPM (B-7935)
- test.method.notes: Antimicrobial activity, inhibition of microbial growth (OD620)
- Assay type: cell-based
- run.parameters: Escherichia coli, compounds tested at 100 µM; read-out: Inhibition of Microbial Growth, E. coli
readout.kind: inhibition at 100 µM (%)
Response body: numeric value in %, unit text excluded.

Lab note: need inhibition at 100 µM with Escherichia coli VKPM (B-7935) for entry COC1=CC(=O)c2c(O)cc(O)cc2[C@@]1(C)O [Compound 1, sajaroketide A] , please look it up.
25.4

Lab note: need inhibition at 100 µM with Escherichia coli VKPM (B-7935) for entry Cc1cc(=O)c2c(C)cc(O)cc2o1 [Compound 4, altechromone A] , please look it up.
13.6

###

- test.method.notes: Cell viability assay (MTT), cytotoxic activity
- Format: cell-based, rat
- run.parameters: rat, H9c2 cardiomyocyte cells; 10 µM, 24 h, MTT, percent of control
readout.kind: viability at 24 h, 10 µM (%)
Response body: numeric value in %, unit text excluded.

# lookup: viability at 24 h, 10 µM of Cc1cc(O)c(O)c2oc3cc(O)cc(O)c3c(=O)c12 [Compound 7, 1,3,5,6-tetrahydroxy-8-methylxanthone]
98

# lookup: viability at 24 h, 10 µM of COC1=CC(=O)C[C@@H](C)[C@]12Oc1c(Cl)c(O)cc(OC)c1C2=O [Compound 9, 6-O-desmethylgriseofulvin]
97.4

# lookup: viability at 24 h, 10 µM of Cc1cc(=O)c2c(C)cc(O)cc2o1 [Compound 4, altechromone A]
110

# lookup: viability at 24 h, 10 µM of Cc1cc(O)cc2oc(C[C@H](C)O)cc(=O)c12 [Compound 3]
96.4

# lookup: viability at 24 h, 10 µM of COC1=CC(=O)C[C@@H](C)[C@]12Oc1c(Cl)c(OC)cc(OC)c1C2=O [Compound 8, griseofulvin, reference compound]
89.8

# lookup: viability at 24 h, 10 µM of COC1=CC(=O)c2c(O)cc(OC)cc2[C@@]1(C)O [Compound 2, sajaroketide B]
96

# lookup: viability at 24 h, 10 µM of COC1=CC(=O)c2c(O)cc(O)cc2[C@@]1(C)O [Compound 1, sajaroketide A]
83.6

# lookup: viability at 24 h, 10 µM of Cc1cc(O)cc2oc3cc(O)cc(O)c3c(=O)c12 [Compound 5, norlichexanthone]
86.3

###

- test.method.notes: Cell viability assay (MTT), cytotoxic activity
- Type: cell-based, human
- run.parameters: human, HepG2 cells (human hepatocarcinoma), 24 h, MTT; read-out: HepG2 IC50 (cytotoxic effect)
readout.kind: IC50 at 24 h

# lookup: IC50 at 24 h of COC1=CC(=O)c2c(O)cc(O)cc2[C@@]1(C)O [Compound 1, sajaroketide A]
> 100 µM

# lookup: IC50 at 24 h of Cc1cc(O)c(O)c2oc3cc(O)cc(O)c3c(=O)c12 [Compound 7, 1,3,5,6-tetrahydroxy-8-methylxanthone]
~100 µM

# lookup: IC50 at 24 h of Cc1cc(O)cc2oc(C[C@H](C)O)cc(=O)c12 [Compound 3]
> 100 µM

# lookup: IC50 at 24 h of COC1=CC(=O)C[C@@H](C)[C@]12Oc1c(Cl)c(O)cc(OC)c1C2=O [Compound 9, 6-O-desmethylgriseofulvin]
> 100 µM

# lookup: IC50 at 24 h of COC1=CC(=O)c2c(O)cc(OC)cc2[C@@]1(C)O [Compound 2, sajaroketide B]
> 100 µM

# lookup: IC50 at 24 h of Cc1cc(O)cc2oc3cc(O)cc(O)c3c(=O)c12 [Compound 5, norlichexanthone]
~100 µM

# lookup: IC50 at 24 h of COC1=CC(=O)C[C@@H](C)[C@]12Oc1c(Cl)c(OC)cc(OC)c1C2=O [Compound 8, griseofulvin, reference compound]
77.8 µM

# lookup: IC50 at 24 h of Cc1cc(=O)c2c(C)cc(O)cc2o1 [Compound 4, altechromone A]
> 100 µM
